target: T1, human plasma Kallikrein (human, UniProt P03952 20-638, limits assumed); experiment: enzyme inhibition assay
T1 construct: also called hPK; human PK
T1 sequence (P03952 20-638 limits assumed): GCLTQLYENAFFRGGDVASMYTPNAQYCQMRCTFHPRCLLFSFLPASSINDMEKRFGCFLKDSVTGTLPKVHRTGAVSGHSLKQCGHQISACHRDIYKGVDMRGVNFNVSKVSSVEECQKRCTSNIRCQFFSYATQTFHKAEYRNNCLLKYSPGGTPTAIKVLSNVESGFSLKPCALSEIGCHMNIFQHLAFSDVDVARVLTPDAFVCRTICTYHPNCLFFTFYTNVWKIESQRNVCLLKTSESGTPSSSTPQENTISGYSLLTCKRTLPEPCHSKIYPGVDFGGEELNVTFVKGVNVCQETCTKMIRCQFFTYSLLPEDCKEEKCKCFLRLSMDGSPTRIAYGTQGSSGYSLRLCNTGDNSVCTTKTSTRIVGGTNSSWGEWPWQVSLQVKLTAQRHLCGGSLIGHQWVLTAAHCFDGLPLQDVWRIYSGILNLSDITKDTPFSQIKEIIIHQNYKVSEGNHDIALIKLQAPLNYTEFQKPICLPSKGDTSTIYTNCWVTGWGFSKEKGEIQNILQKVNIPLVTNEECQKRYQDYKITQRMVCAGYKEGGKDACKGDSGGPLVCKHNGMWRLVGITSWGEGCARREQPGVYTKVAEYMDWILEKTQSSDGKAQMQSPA
Numbered stars: 1 amine (or outer) side, 2 acyl side, 3 side chain; on linkers, the order of the positions; unused ones are H or OH. Bridge positions count the residues as written; N and C are the ends. Square brackets hold non-standard residues; d marks the D form. TBMB = c1c(C[*:1])cc(C[*:3])cc1C[*:2]; Tic = O=C(O)[C@@H]1Cc2ccccc2CN1
Outcome measure: Ki (nM)
Give just the number in nM; leave the unit off.

Prompt: Give recorded Ki. Ac-CSW[Tic]ARCLHQDLC-NH2 (linker 1-7-13 via TBMB; SMILES CC(=O)N[C@H]1CSCc2cc3cc(c2)CSC[C@H](NC(=O)[C@H](CCCNC(=N)N)NC(=O)[C@H](C)NC(=O)[C@@H]2Cc4ccccc4CN2C(=O)[C@H](Cc2c[nH]c4ccccc24)NC(=O)[C@H](CO)NC1=O)C(=O)N[C@@H](CC(C)C)C(=O)N[C@@H](Cc1c[nH]cn1)C(=O)N[C@@H](CCC(N)=O)C(=O)N[C@@H](CC(=O)O)C(=O)N[C@@H](CC(C)C)C(=O)N[C@H](C(N)=O)CSC3) [Ac-(06-34-18) Tic3]
Response: 13.5
